species: Bos taurus; experiment: Inhibition of bovine liver beta-galactosidase using p-nitrophenyl glycoside as substrate assessed as release of p-nitrophenol at 1000 uM measured by spectrometric assay relative to control
Exercise: for every item that follows, state its recorded inhibition.
Reply with just the number (in %).

So, CCCCCCC[C@]1(CO)NC[C@H](O)[C@@H](O)[C@@H]1O.Cl ? Its inhibition was 29

# inhibition of CCCCCC[C@@]1(CO)NC[C@H](O)[C@@H](O)[C@@H]1O.Cl = 24.8

Recorded result, CCCCCC[C@]1(CO)NC[C@H](O)[C@@H](O)[C@@H]1O.Cl , inhibition: 15.5

// recorded inhibition for CCCCC[C@@]1(CO)NC[C@H](O)[C@@H](O)[C@@H]1O.Cl : 18.7

The value of inhibition measured for the compound CCC[C@@]1(CO)NC[C@H](O)[C@@H](O)[C@@H]1O.Cl turned out to be 15.4

Measured inhibition of CCC[C@]1(CO)NC[C@H](O)[C@@H](O)[C@@H]1O.Cl : 15.7

###

Please provide measured inhibition for the entries that follow.
tested on: Prunus dulcis; assay: Inhibition of almond beta-glucosidase using p-nitrophenyl glycoside as substrate assessed as release of p-nitrophenol at 1000 uM measured by spectrometric assay relative to control
Number first, unit second.

Note to self: inhibition recorded for CCCCCCCCC[C@@]1(CO)NC[C@H](O)[C@@H](O)[C@@H]1O.Cl was 32.9%

For CCCCCCCCCCC[C@]1(CO)NC[C@H](O)[C@@H](O)[C@@H]1O.Cl the compound record lists inhibition as 10%

inhibition reading for CCCCCCCC[C@@]1(CO)NC[C@H](O)[C@@H](O)[C@@H]1O.Cl : 14.8%

###

experiment: Inhibition of Penicillium decumbens alpha-L-rhamnosidase using p-nitrophenyl glycoside as substrate assessed as release of p-nitrophenol measured by spectrometric assay
Measured Metric: IC50

Use the examples below as a reference point.
Sample CC[C@@]1(CO)NC[C@H](O)[C@@H](O)[C@@H]1O.Cl ; IC50 observed: Not Active

// IC50 value for OC[C@@H]1NC[C@H](O)[C@@H](O)[C@@H]1O : Not Active

Looking up CCCCCCCCCCC[C@@]1(CO)NC[C@H](O)[C@@H](O)[C@@H]1O.Cl , I see its IC50 listed as Not Active

Documented IC50 of C[C@@]1(CO)NC[C@H](O)[C@@H](O)[C@@H]1O.Cl : Not Active

The compound listed as CCCCCCC[C@]1(CO)NC[C@H](O)[C@@H](O)[C@@H]1O.Cl shows IC50 equal to Not Active

Next:
For this compound ( CCCCCCCC[C@@]1(CO)NC[C@H](O)[C@@H](O)[C@@H]1O.Cl ), measured IC50 is Not Active

Entry C[C@]1(CO)NC[C@H](O)[C@@H](O)[C@@H]1O.Cl , IC50 reported as Not Active

Entry CCCC[C@@]1(CO)NC[C@H](O)[C@@H](O)[C@@H]1O.Cl , IC50 reported as Not Active

Short answer for CCCCCCC[C@@]1(CO)NC[C@H](O)[C@@H](O)[C@@H]1O.Cl : IC50 was Not Active

response.value for CCCC[C@]1(CO)NC[C@H](O)[C@@H](O)[C@@H]1O.Cl (field: IC50) = Not Active

The compound CC[C@]1(CO)NC[C@H](O)[C@@H](O)[C@@H]1O.Cl showed IC50 equal to Not Active

Record OC[C@H]1NC[C@H](O)[C@@H](O)[C@@H]1O [DUVOGLUSTAT] . Reported IC50: Not Active

Just for reference, ChEMBL document CHEMBL4828725 is where these values come from.
